system: carbon tetrachloride-induced hepatic disorders; experiment: Effect of inhibiting carbon tetrachloride-induced hepatic disorders; format: in vivo; details: plasma glutamic-pyruvic transaminase activity, Reitman-Frankel method; male mice of dd strain, 30 mg/kg orally 6 hours before carbon tetrachloride 0.05 ml/kg orally; 24 hours after; mean of 5 mice; values above 2,100 counted as 2,100
p-GPT(K.U.): recorded values
Reply with just the number (in K.U.).

Problem: Note p-GPT(K.U.) for the compound shown: CN(C)C1SC(=C2C(=O)CC(C)(C)CC2=O)SC1N(C)C (stereo not shown)
Solution: 49

Problem: Given CC(=O)OC1SC(=C2C(=O)CC(c3ccco3)CC2=O)SC1N1CCN(C)CC1 (stereo not shown) , respond with its p-GPT(K.U.).
Solution: 205

Problem: Provide only the value of recorded p-GPT(K.U.) for CN(C)C1SC(=C2C(=O)CCCC2=O)SC1N(C)C (stereo not shown)
Solution: 17

Others:
Problem: Input O=C1CCCC(=O)C1=C1SC(N2CCOCC2)C(N2CCOCC2)S1 (stereo not shown) , output reported p-GPT(K.U.).
Solution: 12

Problem: Supply measured p-GPT(K.U.) of CCC(=O)OC1SC(=C2C(=O)CCCC2=O)SC1N(C)C (stereo not shown) in your reply.
Solution: 15

Problem: For CN(C)C1SC(=C2C(=O)CC(C)(C)CC2=O)SC1O (stereo not shown) , write its p-GPT(K.U.).
Solution: 157

Problem: Entry CCOC(=O)OC1SC(=C2C(=O)CCCC2=O)SC1N(C)C (stereo not shown) needs its p-GPT(K.U.) filled in; supply it.
Solution: 18

Problem: Provide one value: measured p-GPT(K.U.) of CC(=O)OC1SC(=C2C(=O)CC(c3ccc(C)cc3)CC2=O)SC1N(C)C (stereo not shown)
Solution: 229

Problem: Dear colleague, please send me the reported p-GPT(K.U.) for CCN1CCN(C2SC(=C3C(=O)CC(C)(C)CC3=O)SC2OC(C)=O)CC1 (stereo not shown) when you can.
Solution: 297

Problem: Determine its reported p-GPT(K.U.): Cc1ccc(C2CC(=O)C(=C3SC(O)C(N(C)C)S3)C(=O)C2)o1 (stereo not shown)
Solution: 430
